Test system: NCI-H23 lung
Assay Summary: NCI-60 one-dose screen, 48 h
Cond: 10 µM unless noted
Compounds without any hit were thinned out: in the full panel of roughly 83,000, 20% have a hit. Activity calls are given as the source filed them. Rule for the calls: active = growth percent below 10; inactive = the rest.
Outcome field: choose from Y = active, N = inactive

Asked: Dear all, I need the recorded test outcome for NS(=O)(=O)c1ccc(Nc2nc(N/N=C/CCc3ccccc3)nc(Nc3ccccc3)n2)cc1 , thank you.
Given back: N

Asked: Dear all, I need the recorded test outcome for O=C1/C(=C/C=C/c2ccco2)SC(=S)N1c1ccccc1 , thank you.
Given back: N

Asked: Dear all, I need the recorded test outcome for Nc1ccccc1NC(=O)c1ccc(NC(=O)C/C=C/c2cccnc2)cc1 , thank you.
Given back: N

Asked: Dear all, I need the recorded test outcome for Nc1nc(-c2cccc([N+](=O)[O-])c2)c(N=Nc2cccc([N+](=O)[O-])c2)s1 , thank you.
Given back: Y

Asked: Dear all, I need the recorded test outcome for Cc1ccc(-n2cc(/C=C/C(=O)c3ccc(O)cc3)c(-c3ccc(S(C)(=O)=O)cc3)n2)cc1 , thank you.
Given back: N

Asked: Dear all, I need the recorded test outcome for COc1ccc(S(=O)(=O)NCCCNc2nccc(-c3[nH]c(-c4ccccc4)nc3-c3ccc(Cl)c(O)c3)n2)cc1 , thank you.
Given back: N

Asked: Dear all, I need the recorded test outcome for Cn1ccnc1C(=O)/C=C/c1ccc(NC(=O)c2c(F)c(F)c(F)c(F)c2F)cc1 , thank you.
Given back: N

Asked: Dear all, I need the recorded test outcome for COc1cc(-c2nn(C(C)(C)C)cc2-c2ccnc(NCCCNS(=O)(=O)c3ccc(F)cc3)n2)ccc1Cl , thank you.
Given back: N

Asked: Dear all, I need the recorded test outcome for COc1cc(-c2nn(C(C)(C)C)cc2-c2ccnc(NCCCNS(=O)(=O)c3cccc(F)c3)n2)ccc1Cl , thank you.
Given back: N

----------
Test system: IGROV1 ovarian
Assay Summary: NCI-60 one-dose screen, 48 h (100 = growth as untreated, 0 = no growth, -100 = all killed)
Cond: 10 µM unless noted
Compounds without any hit were thinned out: in the full panel of roughly 83,000, 20% have a hit.
Classification field: enter Criterion met for growth values not below 60%, Criterion not met for values below it.

Asked: Can CC(=O)Nc1cccc(Nc2nc(N[C@H](C)c3ccccc3)c3ccccc3n2)c1 be said to have growth at or above 60%?
Given back: Criterion not met

Asked: Can COc1ccccc1-n1cc(C#N)c(N)c1C(=O)c1ccc(Cl)cc1 be said to have growth at or above 60%?
Given back: Criterion met

Asked: Can Cc1ccc(-n2cc(/C=N/NC(=O)c3nc(N)n[nH]3)c(-c3ccc(S(C)(=O)=O)cc3)n2)cc1 be said to have growth at or above 60%?
Given back: Criterion met

Asked: Can O=C1/C(=C/C=C/c2ccco2)SC(=S)N1C1CCCCC1 be said to have growth at or above 60%?
Given back: Criterion met

Asked: Can CCO/C=N/C1=C(C#N)C(c2ccc(OC)cc2)c2sc3c(CC)cccc3c2O1 (centres undefined) be said to have growth at or above 60%?
Given back: Criterion not met

Asked: Can COc1ccc(-n2c(SCc3nnc(NC(=O)c4ccc(Br)cc4)s3)nc3cc(OC)c(OC)cc3c2=O)cc1 be said to have growth at or above 60%?
Given back: Criterion met

Asked: Can Cc1ccc(NC(=O)c2ccc(CN3CCOCC3)c(C(F)(F)F)c2)cc1Oc1ccc(-c2[nH]nc3ncnc(N)c23)cc1 be said to have growth at or above 60%?
Given back: Criterion met

Asked: Can Cc1ccc(NC(=O)CNc2cc(C(N)=O)cc(F)c2C)c(Cl)c1 be said to have growth at or above 60%?
Given back: Criterion met

Asked: Can CCCCCc1ccc(S(=O)(=O)Nc2cc(-c3csc(NC(=O)CN4CCN(C)CC4)n3)ccc2N2CCN(C)CC2)cc1 be said to have growth at or above 60%?
Given back: Criterion not met

Asked: Can COc1ccc(NC2=C(Cl)C(=O)c3nc(C)ccc3C2=O)cc1OC be said to have growth at or above 60%?
Given back: Criterion not met

Asked: Can CCN(CC)c1ccc2c(c1)Oc1nc(N)c(C#N)c(N)c1C2Sc1ccc(C)cc1 (centres undefined) be said to have growth at or above 60%?
Given back: Criterion not met

Asked: Can Cc1noc(C)c1CSc1nc2ccccc2n1-c1ccccc1 be said to have growth at or above 60%?
Given back: Criterion met

Asked: Can CNC(=O)c1cc(N2CCc3cc(NC(=O)Nc4ccc(Cl)c(C(F)(F)F)c4)ccc32)ccn1 be said to have growth at or above 60%?
Given back: Criterion not met

Asked: Can COc1ccc(NC(=O)CSc2nnc(-c3ccc4nc(-c5ccc(OC)c(OC)c5)[nH]c4c3)o2)cc1OC be said to have growth at or above 60%?
Given back: Criterion met

Asked: Can Cc1ccc(C(=O)NN2C(=O)/C(=C/C=C/c3ccco3)SC2=S)cc1 be said to have growth at or above 60%?
Given back: Criterion met

Asked: Can O=C(CSc1nc2ccccc2c(=O)n1-c1ccccc1)Nc1ccc(-c2nc3ccc([N+](=O)[O-])cc3[nH]2)cc1 be said to have growth at or above 60%?
Given back: Criterion not met

Asked: Can CC(C)(C)c1ccc(-c2nnc(-c3nc4ccccc4nc3Cl)o2)cc1 be said to have growth at or above 60%?
Given back: Criterion met

Asked: Can O=C(Nc1ccc2c(ccn2Cc2ccccn2)c1)c1cnccn1 be said to have growth at or above 60%?
Given back: Criterion met
